Experiment: chemical genetic growth profiling, strain panel (AID 1159580);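 further: tested at 20 µM; growth read once vehicle control cultures reached saturation at 30 °C; 1 = growth at the plate median or of vehicle wells; lower values mean less growth of the strain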
Settings: S. cerevisiae deletion strains, growth OD, locus YPL153C, strain RAD53, stronger effect = lower value
Out of some 5,500 compounds screened, about 2,000 (36%) were called active. Another 18% or so got no clear call; they are omitted. Some of the results follow.
Catalogue of compounds with associated normalized growth

{"ITEM_SMILES": "N/C(Cc1cccc2ccccc12)=N/OC(=O)c1ccc(Cl)cc1", "normalized growth": 0.927}
{"ITEM_SMILES": "Cc1cc(/C(N)=N\\OC(=O)C(C)(C)C)cc(/C(N)=N\\OC(=O)C(C)(C)C)c1", "normalized growth": 0.965}
{"ITEM_SMILES": "Cc1ccc(-n2cccc2)c(NS(=O)(=O)c2ccc(-c3ccno3)s2)c1", "normalized growth": 0.872}
{"ITEM_SMILES": "O=S(=O)(Nc1ccccc1Oc1ccccc1)c1ccc(-c2ccno2)s1", "normalized growth": 0.93}
{"ITEM_SMILES": "Clc1ccc(SCc2ccsc2-c2ncns2)cc1", "normalized growth": 0.958}
{"ITEM_SMILES": "COc1c(Br)csc1C(=O)O/N=C(/N)c1cc(C(F)(F)F)cc(C(F)(F)F)c1", "normalized growth": 1.04}
{"ITEM_SMILES": "Cc1onc(-c2c(Cl)cccc2Cl)c1C(=O)O/N=C(/N)Cc1ccc(C(C)(C)C)cc1", "normalized growth": 1}
{"ITEM_SMILES": "Cc1c(C)c(C)c(C(=O)c2ccc(N=Cc3cc(Cl)cc(Cl)c3O)cc2)c(C)c1C", "normalized growth": 0.504}
{"ITEM_SMILES": "O=C(Nc1ccc(F)cc1F)c1cc(Cl)c(-n2cccc2)c(Cl)c1", "normalized growth": 0.928}
{"ITEM_SMILES": "CCOC(=O)c1ccc(Cl)c(N=Cc2cc(Cl)cc(Cl)c2O)c1", "normalized growth": 0.421}
{"ITEM_SMILES": "Brc1ccc(-c2csc(-c3ccncc3)n2)cc1", "normalized growth": 0.609}

###

Assay: chemical genetic growth profiling, strain panel (AID 1159580);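 further: tested at 20 µM; growth read once vehicle control cultures reached saturation at 30 °C; 1 = growth at the plate median or of vehicle wells; lower values mean less growth of the strain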
Details: S. cerevisiae deletion strains, growth OD, locus YKL203C, strain TOR2
Hit rate of the full screen: of about 5,500 compounds, about 2,000 (36%) were called active. About 18% were inconclusive and are not listed. Cut-off read from the data, not from the text of the source: active = normalized growth mostly below about 0.91 (no sharp cut-off); inconclusive = no clear call, values can overlap the other calls; inactive = mostly above about 0.92. The list shows a part of the results.
Outcomes: active, inactive

{"MOLECULE": "C#CCSC1=NNC(c2ccccn2)S1 (stereo unspecified)", "CLASS_LABEL": "active"}
{"MOLECULE": "OC(COc1ccc(F)cc1)(c1ccc(Cl)cc1)c1ccc(Cl)cc1", "CLASS_LABEL": "inactive"}
{"MOLECULE": "CC(C)(C)c1cc(C(=O)NNc2cccc(Cl)c2)n(Cc2ccccc2)n1", "CLASS_LABEL": "inactive"}
{"MOLECULE": "O=S(=O)(Nc1ccccc1Oc1ccccc1)c1ccc(-c2ccno2)s1", "CLASS_LABEL": "inactive"}
{"MOLECULE": "CSc1n[nH]c(-c2cc(C(C)(C)C)oc2C)c1C#N", "CLASS_LABEL": "inactive"}
{"MOLECULE": "Cc1nn(-c2cccc(Cl)c2)c2oc(=O)cc(C(F)(F)F)c12", "CLASS_LABEL": "active"}
{"MOLECULE": "Cc1ccc(-n2cccc2)c(NS(=O)(=O)c2ccc(-c3ccno3)s2)c1", "CLASS_LABEL": "inactive"}
{"MOLECULE": "Clc1ccc(CN2CCN(c3cccc4[nH]ccc34)CC2)cc1Cl", "CLASS_LABEL": "inactive"}
{"MOLECULE": "CC(C)(C)c1cc(C(=O)Nc2ccc3c(c2)OCO3)n(Cc2ccc(F)cc2)n1", "CLASS_LABEL": "inactive"}
{"MOLECULE": "O=C1c2cccc3c(Sc4ccccc4)ccc(c23)C(=O)N1NCCO", "CLASS_LABEL": "inactive"}
{"MOLECULE": "N/C(Cc1cccc2ccccc12)=N/OC(=O)c1ccc(Cl)cc1", "CLASS_LABEL": "inactive"}
